Give IC50 for every item shown.
# system-name: UniProt:Q9H2X6
# Sequence (Q9H2X6 whole entry): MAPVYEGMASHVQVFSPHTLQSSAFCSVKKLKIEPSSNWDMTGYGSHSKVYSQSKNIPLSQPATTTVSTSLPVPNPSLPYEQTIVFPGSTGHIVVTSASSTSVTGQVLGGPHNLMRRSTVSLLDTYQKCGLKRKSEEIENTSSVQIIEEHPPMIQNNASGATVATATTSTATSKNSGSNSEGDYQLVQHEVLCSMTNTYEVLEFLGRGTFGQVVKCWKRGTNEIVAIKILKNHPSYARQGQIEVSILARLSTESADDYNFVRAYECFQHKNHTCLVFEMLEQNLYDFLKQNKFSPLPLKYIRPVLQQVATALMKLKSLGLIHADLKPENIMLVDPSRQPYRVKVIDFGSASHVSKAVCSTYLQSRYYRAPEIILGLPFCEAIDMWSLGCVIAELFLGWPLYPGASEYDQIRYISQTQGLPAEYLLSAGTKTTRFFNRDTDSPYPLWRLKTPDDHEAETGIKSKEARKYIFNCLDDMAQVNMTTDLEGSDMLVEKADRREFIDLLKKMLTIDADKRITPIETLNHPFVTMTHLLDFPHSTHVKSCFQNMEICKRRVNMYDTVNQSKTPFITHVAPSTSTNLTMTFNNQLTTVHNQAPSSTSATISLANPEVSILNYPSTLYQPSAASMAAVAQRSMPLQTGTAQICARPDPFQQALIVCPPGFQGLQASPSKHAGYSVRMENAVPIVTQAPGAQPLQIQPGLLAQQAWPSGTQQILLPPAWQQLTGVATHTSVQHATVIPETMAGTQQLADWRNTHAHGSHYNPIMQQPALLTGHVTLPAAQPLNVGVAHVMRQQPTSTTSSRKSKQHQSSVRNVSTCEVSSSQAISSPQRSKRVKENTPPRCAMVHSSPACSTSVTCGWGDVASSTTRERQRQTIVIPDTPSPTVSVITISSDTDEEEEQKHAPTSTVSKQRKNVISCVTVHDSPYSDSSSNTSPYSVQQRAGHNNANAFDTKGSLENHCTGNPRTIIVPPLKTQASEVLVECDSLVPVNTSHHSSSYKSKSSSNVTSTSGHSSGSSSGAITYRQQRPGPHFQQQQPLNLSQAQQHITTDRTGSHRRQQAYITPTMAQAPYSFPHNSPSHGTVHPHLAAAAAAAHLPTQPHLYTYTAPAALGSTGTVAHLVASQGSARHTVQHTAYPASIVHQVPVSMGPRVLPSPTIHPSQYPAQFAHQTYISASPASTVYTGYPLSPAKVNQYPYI
# assay-comment: ADP-Glo kinase assay (MBP substrate)
# Format: biochemical
# measurement-conditions: read-out: IC50 ± SEM (μM) / HIPK2

- chemical-smiles: "O=C1Nc2ccc3ncsc3c2/C1=C/c1c[nH]cn1"
  meas-value: "3.58 µM"

We now examine a further compound.
Endpoint output: IC50 of CCCNc1ccc2ncc(-c3ccc4[nH]ncc4c3)n2n1 . Value? 0.97 µM

Hey, just so you know, these numbers are from paper PMC11597050.
